test_summary: Pharmacokinetics study in mice
Type: in vivo, ICR mice
study_conditions: both sexes, ICR, mouse, plasma, ip, i.p. 2.5 mg/kg
parameter_measured: Cmax (ng/mL)
Express it in ng/mL; write the number only.

Q. What measured Cmax goes with `C=CC(=O)Nc1cc(N(C(=O)NCc2ccccc2)[C@H]2CC[C@H](Nc3ccc(C#N)cn3)CC2)ccc1N1CCC(N(C)C)CC1` ?
A. 1580

----------
test_summary: Pharmacokinetics study in mice
Type: in vivo, ICR mice
study_conditions: both sexes, ICR, mouse, plasma, iv, i.v. 2.5 mg/kg (Figure 3A)
parameter_measured: Cmax (µg/mL)
Respond with the bare value in µg/mL.

Q. Query (molecule): C=CC(=O)Nc1cc(N(C(=O)NCc2ccccc2)[C@H]2CC[C@H](Nc3ccc(C#N)cn3)CC2)ccc1N1CCC(N(C)C)CC1 [YJZ5118] ; field requested: Cmax
A. 2.81

----------
test_summary: Pharmacokinetics study in mice
Assay type: in vivo, ICR mice
study_conditions: both sexes, ICR, mouse, plasma, intravenous, i.v. 2.5 mg/kg (Table S5, intraperitoneal study)
parameter_measured: AUC(0-t) (ng·h/mL)
A number alone suffices; assume ng·h/mL.

Q. If you can, please state the reported AUC(0-t) value of `C=CC(=O)Nc1cc(N(C(=O)NCc2ccccc2)[C@H]2CC[C@H](Nc3ccc(C#N)cn3)CC2)ccc1N1CCC(N(C)C)CC1` .
A. 1660

----------
tested_on: CDK6/CycD1 (Homo sapiens, UniProt Q00534)
Construct: ICE Bioscience Inc. (assay service)
Sequence (Q00534 whole entry, species assumed): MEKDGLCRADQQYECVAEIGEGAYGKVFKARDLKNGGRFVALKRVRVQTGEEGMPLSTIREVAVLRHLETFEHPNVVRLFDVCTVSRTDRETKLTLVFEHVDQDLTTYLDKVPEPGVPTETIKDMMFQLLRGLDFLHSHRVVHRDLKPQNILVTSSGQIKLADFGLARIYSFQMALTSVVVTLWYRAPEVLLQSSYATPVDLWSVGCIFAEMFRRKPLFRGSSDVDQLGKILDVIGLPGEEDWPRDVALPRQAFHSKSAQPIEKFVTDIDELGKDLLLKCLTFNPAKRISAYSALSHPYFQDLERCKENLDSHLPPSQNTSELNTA
Sequence (P24385 whole entry partner, species assumed): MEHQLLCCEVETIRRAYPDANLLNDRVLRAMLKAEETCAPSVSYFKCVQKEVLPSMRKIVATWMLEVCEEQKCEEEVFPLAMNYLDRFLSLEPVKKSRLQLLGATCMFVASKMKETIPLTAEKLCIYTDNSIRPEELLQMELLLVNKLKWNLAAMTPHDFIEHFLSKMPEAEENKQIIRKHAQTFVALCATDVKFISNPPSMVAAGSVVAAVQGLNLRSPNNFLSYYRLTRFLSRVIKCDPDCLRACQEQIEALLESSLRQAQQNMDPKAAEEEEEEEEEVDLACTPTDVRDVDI
test_summary: CDK family panel, ADP-Glo
Assay type: biochemical
parameter_measured: IC50 (nM)
State just the number; it will be interpreted in nM.

Q. Returns the measured IC50 for the input molecule. Input: `C=CC(=O)Nc1cc(N(C(=O)NCc2ccccc2)[C@H]2CC[C@H](Nc3ccc(C#N)cn3)CC2)ccc1N1CCC(N(C)C)CC1`
A. 4480

----------
tested_on: CDK13/CycK (Homo sapiens, UniProt Q14004)
Construct: ICE Bioscience Inc. (assay service)
Sequence (Q14004 whole entry): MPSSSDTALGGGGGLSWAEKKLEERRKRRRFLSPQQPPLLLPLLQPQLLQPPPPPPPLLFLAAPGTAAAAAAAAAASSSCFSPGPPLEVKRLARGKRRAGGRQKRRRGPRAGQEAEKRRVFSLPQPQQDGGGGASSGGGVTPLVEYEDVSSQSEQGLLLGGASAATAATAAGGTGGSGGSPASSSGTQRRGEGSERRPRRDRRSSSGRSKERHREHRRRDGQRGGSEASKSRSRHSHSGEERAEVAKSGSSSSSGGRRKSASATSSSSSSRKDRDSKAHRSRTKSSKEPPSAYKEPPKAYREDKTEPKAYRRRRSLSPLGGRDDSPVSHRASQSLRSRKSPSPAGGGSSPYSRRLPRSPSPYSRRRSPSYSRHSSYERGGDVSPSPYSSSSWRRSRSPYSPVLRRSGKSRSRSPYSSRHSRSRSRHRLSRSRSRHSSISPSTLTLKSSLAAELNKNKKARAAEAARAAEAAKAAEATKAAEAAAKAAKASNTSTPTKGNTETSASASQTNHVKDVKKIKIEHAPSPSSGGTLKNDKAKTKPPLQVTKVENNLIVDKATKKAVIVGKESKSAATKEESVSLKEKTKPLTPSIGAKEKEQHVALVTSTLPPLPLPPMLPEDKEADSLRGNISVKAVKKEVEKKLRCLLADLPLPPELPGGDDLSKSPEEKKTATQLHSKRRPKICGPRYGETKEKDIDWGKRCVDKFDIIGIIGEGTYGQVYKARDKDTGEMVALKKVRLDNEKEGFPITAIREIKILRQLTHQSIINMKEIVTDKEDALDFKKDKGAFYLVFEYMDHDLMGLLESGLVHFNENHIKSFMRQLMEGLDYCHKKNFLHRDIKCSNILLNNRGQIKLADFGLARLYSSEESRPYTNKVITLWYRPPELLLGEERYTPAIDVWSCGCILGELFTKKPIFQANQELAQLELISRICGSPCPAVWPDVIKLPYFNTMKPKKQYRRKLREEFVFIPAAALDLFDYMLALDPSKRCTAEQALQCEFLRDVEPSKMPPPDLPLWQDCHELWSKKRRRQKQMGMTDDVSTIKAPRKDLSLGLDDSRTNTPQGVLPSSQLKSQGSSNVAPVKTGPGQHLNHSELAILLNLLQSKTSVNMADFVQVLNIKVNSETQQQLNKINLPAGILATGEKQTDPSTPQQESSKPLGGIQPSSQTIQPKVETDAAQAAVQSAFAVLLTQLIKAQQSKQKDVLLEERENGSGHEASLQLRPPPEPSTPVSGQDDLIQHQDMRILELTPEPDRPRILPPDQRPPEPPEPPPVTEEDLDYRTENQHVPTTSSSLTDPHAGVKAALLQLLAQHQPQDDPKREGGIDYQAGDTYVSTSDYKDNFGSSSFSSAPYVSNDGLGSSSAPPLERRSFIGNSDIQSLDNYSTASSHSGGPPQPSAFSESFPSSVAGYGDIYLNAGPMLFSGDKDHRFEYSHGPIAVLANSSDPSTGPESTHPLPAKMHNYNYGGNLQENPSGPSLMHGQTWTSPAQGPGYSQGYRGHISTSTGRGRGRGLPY
Sequence (O75909 whole entry partner): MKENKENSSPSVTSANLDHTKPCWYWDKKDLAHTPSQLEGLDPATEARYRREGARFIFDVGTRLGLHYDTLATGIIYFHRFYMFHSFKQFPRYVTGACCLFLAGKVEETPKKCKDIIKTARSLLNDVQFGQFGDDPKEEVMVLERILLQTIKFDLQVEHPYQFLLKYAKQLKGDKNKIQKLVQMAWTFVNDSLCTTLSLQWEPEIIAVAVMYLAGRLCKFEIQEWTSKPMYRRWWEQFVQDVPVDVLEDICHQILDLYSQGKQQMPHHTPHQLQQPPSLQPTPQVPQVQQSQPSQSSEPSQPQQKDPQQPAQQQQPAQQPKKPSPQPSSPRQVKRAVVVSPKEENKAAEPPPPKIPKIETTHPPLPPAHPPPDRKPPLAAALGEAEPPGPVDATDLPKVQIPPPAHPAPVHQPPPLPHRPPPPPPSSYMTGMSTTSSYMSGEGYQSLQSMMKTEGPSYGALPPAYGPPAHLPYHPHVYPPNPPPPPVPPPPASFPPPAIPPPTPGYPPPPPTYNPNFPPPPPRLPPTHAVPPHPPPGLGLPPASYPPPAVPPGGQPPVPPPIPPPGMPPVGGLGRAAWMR
test_summary: ADP-Glo kinase assay, CDK13
Format: biochemical
study_conditions: means from three independent experiments
Listing of entries alongside the reported IC50.
State just the number; it will be interpreted in nM.

Illustrative cases are given below, each with its answer.
| compound | units_of_measure | IC50 |
| --- | --- | --- |
| CN(C)C/C=C/C(=O)Nc1ccc(C(=O)N2CCC[C@@H](Nc3ncc(Cl)c(-c4c[nH]c5ccccc45)n3)C2)cc1 [Compound 3, THZ531, reference compound] | nM | 63.3 |
| C=CC(=O)Nc1cc(N(C(=O)NCc2ccccc2)[C@H]2CC[C@H](Nc3ccc(C#N)cn3)CC2)ccc1N1C[C@H]2C[C@@H]1CN2C [Compound 14g] | nM | 83.9 |

Q. Form field: reported IC50 of C=CC(=O)Nc1cc(N(C(=O)NCc2ccccc2)[C@H]2CC[C@H](Nc3ccc(C#N)cn3)CC2)ccc1N1CC(N(C)C)C1 [Compound 14d]
A. 73.7

----------
test_summary: Pharmacokinetics study in mice
Assay type: in vivo, ICR mice
study_conditions: both sexes, ICR, mouse, plasma, iv, i.v. 2 mg/kg
parameter_measured: half-life (min)
A number alone suffices; assume min.

Q. Consider the compound C=CC(=O)Nc1cc(N(C(=O)NCc2ccccc2)[C@H]2CC[C@H](Nc3ccc(C#N)cn3)CC2)ccc1N1CCN(C)[C@@H](C)C1 [Compound 14h] and give its measured half-life.
A. 21.6

Hey, just so you know, these numbers are from paper PMC12147761.
